B1: TSN (parent)
chain: FVELQGFLAAEQDIREEIRKVVQS

Variants of: B1
Assay: protein stability index of a GFP-peptide fusion (GPS, HEK-293T) (PSI 1-6); higher = more stable;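 note: lentivirally expressed fusions sorted by FACS into six bins by GFP to DsRed ratio, PSI derived from sequencing read proportions per bin multiplied by bin number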
Details: c terminus: a fixed tail appended
observation_type: protein stability index

F1P	2.9
V2Y	2.31
Q5D	1.23
A9L	1.57
E17M	2.49
E17R	1.48

**Query** Can you look up the measured protein stability index of `F1C` for me?
**Result** 3.1

**Query** // protein stability index lookup, key: `L4I`
**Result** 1.79

**Query** Give its protein stability index value. Item: `K20G`
**Result** 1.7

**Query** Tell me the measured protein stability index of `V21T` , please.
**Result** 3.32

**Query** Fill in: protein stability index of `E11L` is ___
**Result** 2.02

**Query** // lookup protein stability index for `L8K`
**Result** 1.72

**Query** Please report the recorded protein stability index for `F1K` .
**Result** 3.83

**Query** I am curious: what protein stability index value has been reported for `L4R` ?
**Result** 1.97

**Query** Could you tell me which protein stability index is on file for `F1R` ?
**Result** 3.12

**Query** GET /values?readout=protein stability index&item= `L8Y`
**Result** 1.8

All values here come from the supplement of paper PMC10567573.
